biological target: glutathione S-transferase (GST)-fusion human ERK2 protein (Homo sapiens, UniProt P28482); construct: purchased Carna Biosciences, Inc; host or cells: E. coli expression system; assay: ERK2 enzyme assay (LabChip mobility shift); assay type: biochemical; settings: IC50 class; 2 nM ERK2, 4.25 μM FL-Peptide 8, 43 μM ATP; read-out: ERK2 Inhibitory Activity
Sequence (P28482 whole entry, the tested form may be a part): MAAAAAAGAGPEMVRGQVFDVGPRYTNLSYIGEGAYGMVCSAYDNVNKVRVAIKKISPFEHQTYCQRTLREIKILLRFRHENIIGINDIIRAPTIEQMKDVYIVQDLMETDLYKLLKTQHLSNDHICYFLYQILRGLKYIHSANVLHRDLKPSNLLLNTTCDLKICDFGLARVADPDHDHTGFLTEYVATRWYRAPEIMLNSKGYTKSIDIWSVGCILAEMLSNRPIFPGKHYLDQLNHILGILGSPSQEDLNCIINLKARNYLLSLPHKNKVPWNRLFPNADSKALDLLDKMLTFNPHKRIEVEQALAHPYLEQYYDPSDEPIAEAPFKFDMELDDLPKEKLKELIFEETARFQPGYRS
pIC50: −log10 of the molar value.
result.type: pIC50

- CC1(NC(=O)Nc2ccc3ncc(-c4cnn(C5CCNCC5)c4)cc3n2)CCCC1: 6.00 to 7.00
- O=C(Nc1ccc2ncc(N3CC(OCCCN4CCOCC4)C3)cc2n1)NC1CCCC1: 6.00 to 7.00

So what's the measured pIC50 for this one? "O=C(Nc1ccc2ncc(-c3cn[nH]c3)cc2n1)N[C@H]1CCc2ccccc21"
> 7.00

What value of measured pIC50 is listed for "O=C(NCCCCc1ccccc1F)Nc1ccc2ncc(-c3cnn(CCCN4CCOCC4)c3)cc2n1" ?
> 7.00

Quick one: pIC50 for "CCN1CCN(CCCn2cc(-c3cnc4ccc(NC(=O)NC5CCCC5)nc4c3)cn2)CC1" ?
> 7.00

###

target: human PI3Kα protein (Homo sapiens, UniProt P42336); construct: purchased Carna Biosciences, Inc; host or cells: Baculovirus expression system; assay: PI3Kα enzyme assay (ADP-Glo kinase assay); assay type: biochemical; conditions: IC50 class; 3 nM PI3Kα, 50 μM PIP2, 100 μM ATP; read-out: PI3Kα Inhibitory Activity
Sequence (P42336 whole entry): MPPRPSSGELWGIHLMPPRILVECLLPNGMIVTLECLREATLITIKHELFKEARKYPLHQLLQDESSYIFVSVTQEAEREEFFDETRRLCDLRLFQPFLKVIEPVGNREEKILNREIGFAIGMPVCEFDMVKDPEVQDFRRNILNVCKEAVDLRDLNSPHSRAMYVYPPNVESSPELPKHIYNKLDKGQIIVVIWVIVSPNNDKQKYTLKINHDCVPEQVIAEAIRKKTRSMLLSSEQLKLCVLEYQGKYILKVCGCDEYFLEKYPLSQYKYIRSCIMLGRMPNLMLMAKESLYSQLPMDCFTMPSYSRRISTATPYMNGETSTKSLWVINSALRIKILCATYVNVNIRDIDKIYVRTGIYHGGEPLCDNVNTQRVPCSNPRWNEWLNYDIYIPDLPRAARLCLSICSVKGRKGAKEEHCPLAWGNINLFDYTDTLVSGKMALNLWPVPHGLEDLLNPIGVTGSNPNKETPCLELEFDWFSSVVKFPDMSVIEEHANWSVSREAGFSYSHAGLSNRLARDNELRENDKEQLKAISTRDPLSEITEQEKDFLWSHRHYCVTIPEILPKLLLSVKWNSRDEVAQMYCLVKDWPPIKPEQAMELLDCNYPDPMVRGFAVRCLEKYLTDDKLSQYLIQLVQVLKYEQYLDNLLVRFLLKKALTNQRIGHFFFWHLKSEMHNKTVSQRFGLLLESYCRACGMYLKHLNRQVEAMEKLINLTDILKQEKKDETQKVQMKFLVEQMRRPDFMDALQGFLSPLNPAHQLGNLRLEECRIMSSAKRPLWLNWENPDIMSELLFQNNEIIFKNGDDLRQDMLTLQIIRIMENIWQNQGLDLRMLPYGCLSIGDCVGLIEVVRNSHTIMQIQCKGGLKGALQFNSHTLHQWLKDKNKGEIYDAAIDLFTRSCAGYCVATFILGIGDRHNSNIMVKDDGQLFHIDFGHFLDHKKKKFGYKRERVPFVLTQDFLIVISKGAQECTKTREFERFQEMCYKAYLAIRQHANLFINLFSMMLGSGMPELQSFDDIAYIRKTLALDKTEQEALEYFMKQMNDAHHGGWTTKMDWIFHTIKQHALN
Sequence (P27986 whole entry partner): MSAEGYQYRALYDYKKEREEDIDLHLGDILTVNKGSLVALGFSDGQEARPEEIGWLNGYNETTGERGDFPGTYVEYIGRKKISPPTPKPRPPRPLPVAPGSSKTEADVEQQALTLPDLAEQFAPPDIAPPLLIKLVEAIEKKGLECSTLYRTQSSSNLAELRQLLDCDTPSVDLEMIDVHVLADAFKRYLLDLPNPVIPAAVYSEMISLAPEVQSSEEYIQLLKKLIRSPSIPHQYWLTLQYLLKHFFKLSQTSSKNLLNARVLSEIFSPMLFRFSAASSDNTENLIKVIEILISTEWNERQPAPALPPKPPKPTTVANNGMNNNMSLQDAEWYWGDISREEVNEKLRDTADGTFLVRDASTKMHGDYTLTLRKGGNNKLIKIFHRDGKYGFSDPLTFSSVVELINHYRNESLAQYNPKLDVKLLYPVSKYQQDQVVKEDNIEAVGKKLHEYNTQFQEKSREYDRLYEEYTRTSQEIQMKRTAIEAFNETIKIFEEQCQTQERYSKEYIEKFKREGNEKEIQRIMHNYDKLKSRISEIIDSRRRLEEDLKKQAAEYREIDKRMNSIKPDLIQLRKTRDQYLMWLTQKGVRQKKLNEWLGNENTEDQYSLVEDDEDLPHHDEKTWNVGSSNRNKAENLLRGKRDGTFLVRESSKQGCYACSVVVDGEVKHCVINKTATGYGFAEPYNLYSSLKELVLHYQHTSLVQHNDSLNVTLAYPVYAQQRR
Recorded IC50 by entry

For orientation, consider the following solved cases.
- O=C(Nc1ccc2ncc(-c3cn[nH]c3)cc2n1)NC1CCN(Cc2ccccc2)C1 (stereo not drawn): 100 to 1000 nM
- Cc1n[nH]c(C)c1-c1cnc2ccc(NC(=O)NC3CCCC3)nc2c1: < 100 nM
- O=C(Nc1ccc2ncccc2n1)NC1CCCC1: 100 to 1000 nM
- O=C(Nc1ccc2ncc(-c3cnn(C4CCNC4)c3)cc2n1)NC1CCCC1 (stereo not drawn): < 100 nM
- CC(C)C(C)NC(=O)Nc1ccc2ncc(-c3cn[nH]c3)cc2n1 (stereo not drawn): < 100 nM
- C[C@H](CN(C)C)Cn1cc(-c2cnc3ccc(NC(=O)NC4CCCC4)nc3c2)cn1: < 100 nM
- O=C(Nc1ccc2ncc(-c3cn[nH]c3)cc2n1)N[C@H]1CCNC1: 1000 to 10000 nM
- O=C(NCC1CCC(F)(F)CC1)Nc1ccc2ncc(-c3cn[nH]c3)cc2n1: 100 to 1000 nM
- CS(=O)(=O)N1CCN(c2cnc3ccc(NC(=O)NC4CCCC4)nc3c2)CC1: < 100 nM
- O=C(Nc1ccc2ncc(-c3cn[nH]c3)cc2n1)N[C@@H]1CCNC1: 1000 to 10000 nM

For the compound shown here, "O=C(Nc1ccc2ncc(-c3ccccn3)cc2n1)NC1CCCC1" , give the reported IC50.
< 100 nM

// query IC50 value for entry "CCCNC(=O)Nc1ccc2ncc(-c3cn[nH]c3)cc2n1"
100 to 1000 nM

###

Reported IC50 values follow for various compounds
target: glutathione S-transferase (GST)-fusion human ERK2 protein (Homo sapiens); construct: purchased Carna Biosciences, Inc; host or cells: E. coli expression system; assay: ERK2 enzyme assay (LabChip mobility shift); type: biochemical; conditions: IC50 class; 2 nM ERK2, 4.25 μM FL-Peptide 8, 43 μM ATP; read-out: ERK2 Inhibitory Activity

Use these answered entries as a reference point.
• O=C(Nc1ccc2ncc(-c3cn[nH]c3)cc2n1)NC1CCCCC1 = < 100 nM
• CCCCNC(=O)Nc1ccc2ncc(-c3cn[nH]c3)cc2n1 = < 100 nM
• CC(C)N1CCC(n2cc(-c3cnc4ccc(NC(=O)NC5CCCC5)nc4c3)cn2)CC1 = 100 to 1000 nM

Lab note: next compound to report on.
So what's the measured IC50 for this one? "O=C(Nc1ccc2ncc(-c3ccncc3)cc2n1)NC1CCCC1"
< 100 nM
